# target: MAPK14 (UniProt Q16539)
# Sequence (Q16539 whole entry, looked up): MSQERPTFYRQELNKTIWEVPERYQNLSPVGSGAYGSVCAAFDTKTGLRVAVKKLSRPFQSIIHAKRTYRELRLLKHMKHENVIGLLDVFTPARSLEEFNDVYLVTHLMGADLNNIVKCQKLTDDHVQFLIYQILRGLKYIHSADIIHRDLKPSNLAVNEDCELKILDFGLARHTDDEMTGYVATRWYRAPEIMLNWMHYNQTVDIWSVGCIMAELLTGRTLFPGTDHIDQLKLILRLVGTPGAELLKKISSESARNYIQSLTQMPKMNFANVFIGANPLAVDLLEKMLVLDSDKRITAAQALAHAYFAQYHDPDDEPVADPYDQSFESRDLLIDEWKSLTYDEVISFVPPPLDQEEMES
# method.description: MAPK14 Inhibition (PHAS-I)
quantity.name: pIC50
Kindly note that pIC50 refers to -log10 of the concentration in mol/L and answer with the value alone.

// recorded pIC50 for Fc1ccc(-c2cn(CCN3CCOCC3)nc2-c2ccncc2)cc1.Fc1ccc(-c2cnn(CCN3CCOCC3)c2-c2ccncc2)cc1 : 6.07

// recorded pIC50 for OCCn1cc(-c2ccc(F)cc2)c(-c2ccncc2)n1.OCCn1ncc(-c2ccc(F)cc2)c1-c1ccncc1 : 6.16

// recorded pIC50 for CN(C)CCn1cc(-c2ccc(F)cc2)c(-c2ccncc2)n1.CN(C)CCn1ncc(-c2ccc(F)cc2)c1-c1ccncc1 : 6.03

// recorded pIC50 for CN1CCC(n2cc(-c3ccc(F)cc3)c(-c3ccncc3)n2)CC1.CN1CCC(n2ncc(-c3ccc(F)cc3)c2-c2ccncc2)CC1 : 5.23

---

# target: MAPK14 (human)
# method.description: Antiproliferation Assay (U937 Cells)
What pIC50 was measured for each of the following?
Kindly note that pIC50 refers to -log10 of the concentration in mol/L and answer with the value alone.

// recorded pIC50 for Cc1n[nH]c(-c2ccncc2)c1-c1ccccc1 : 5.00

// recorded pIC50 for OCCn1cc(-c2ccc(F)cc2)c(-c2ccncc2)n1.OCCn1ncc(-c2ccc(F)cc2)c1-c1ccncc1 : 4.40

// recorded pIC50 for Fc1ccc(-c2cn(CCN3CCOCC3)nc2-c2ccncc2)cc1.Fc1ccc(-c2cnn(CCN3CCOCC3)c2-c2ccncc2)cc1 : 4.66

// recorded pIC50 for NS(=O)(=O)Nc1n[nH]c(-c2ccc(F)cc2)c1-c1ccncc1 : 5.00

// recorded pIC50 for Cn1nc(-c2ccncc2)c(-c2ccc(Cl)cc2)c1N : 5.00

// recorded pIC50 for CN(C)CCn1cc(-c2ccc(F)cc2)c(-c2ccncc2)n1.CN(C)CCn1ncc(-c2ccc(F)cc2)c1-c1ccncc1 : 5.30

// recorded pIC50 for CNC(=O)Nc1n[nH]c(-c2ccncc2)c1-c1ccc(F)cc1 : 5.00

src = the Kinase Knowledgebase extract (Sharma et al. 2016)
